// data source = patent US20040146507A1

# TESTED_TARGET: T1, rhesus CD11a (rhesus, UniProt H9Z8N3 26-1169)
# T1 construct: whole, on cells; On rhesus peripheral blood lymphocytes or leukocytes; also called rhCD11a
# T1 sequence: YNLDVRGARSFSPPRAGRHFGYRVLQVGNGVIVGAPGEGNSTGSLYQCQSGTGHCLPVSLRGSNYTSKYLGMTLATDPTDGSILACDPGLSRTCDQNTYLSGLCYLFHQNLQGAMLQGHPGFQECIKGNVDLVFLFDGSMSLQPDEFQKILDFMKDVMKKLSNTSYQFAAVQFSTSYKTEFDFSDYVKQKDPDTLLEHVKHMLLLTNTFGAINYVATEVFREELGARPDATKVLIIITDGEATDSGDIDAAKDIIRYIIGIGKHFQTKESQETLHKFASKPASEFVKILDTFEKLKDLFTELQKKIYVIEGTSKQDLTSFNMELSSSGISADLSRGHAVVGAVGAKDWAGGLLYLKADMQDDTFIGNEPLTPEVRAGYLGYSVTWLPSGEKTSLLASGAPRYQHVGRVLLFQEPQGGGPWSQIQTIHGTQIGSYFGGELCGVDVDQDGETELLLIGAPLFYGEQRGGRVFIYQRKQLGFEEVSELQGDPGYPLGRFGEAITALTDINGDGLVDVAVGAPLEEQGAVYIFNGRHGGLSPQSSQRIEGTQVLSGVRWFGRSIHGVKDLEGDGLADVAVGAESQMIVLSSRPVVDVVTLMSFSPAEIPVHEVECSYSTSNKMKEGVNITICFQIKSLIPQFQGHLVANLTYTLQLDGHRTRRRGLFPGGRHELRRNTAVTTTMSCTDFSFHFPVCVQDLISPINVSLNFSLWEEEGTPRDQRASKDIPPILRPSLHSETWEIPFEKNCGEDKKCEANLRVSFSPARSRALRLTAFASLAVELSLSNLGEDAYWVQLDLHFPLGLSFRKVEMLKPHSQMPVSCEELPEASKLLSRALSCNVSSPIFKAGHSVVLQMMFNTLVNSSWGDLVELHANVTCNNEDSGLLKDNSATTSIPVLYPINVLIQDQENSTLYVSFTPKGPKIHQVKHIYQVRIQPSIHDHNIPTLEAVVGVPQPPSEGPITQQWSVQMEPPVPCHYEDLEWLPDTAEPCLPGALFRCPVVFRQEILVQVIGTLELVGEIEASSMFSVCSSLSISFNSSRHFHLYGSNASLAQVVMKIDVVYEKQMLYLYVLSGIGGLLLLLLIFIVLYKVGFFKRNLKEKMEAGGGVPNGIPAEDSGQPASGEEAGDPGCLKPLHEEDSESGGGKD
# TEST_PROTOCOL: rhesus PBL binding
READOUT_KIND: Var.EC50/HuIgG1 EC50 (ratio)
Write it as a number; the unit ratio goes unstated.

Answered examples (9):
BINDER	Var.EC50/HuIgG1 EC50 (ratio)
HuIgG1 mutant H2A3 (antibody, V domains shown, HuIgG1 mutant, human IgG1; Kabat numbering) VH: EVQLVESGGGLVQPGGSLRLSCAASGYSFTGHWMNWVRQAPGKGLEWVGMIAPSDAETRYNQKFKDRFTISVDKSKNTLYLQMNSLRAEDTAVYYCARGIYFYGTTYFDYWGQGTLVTVSS VL: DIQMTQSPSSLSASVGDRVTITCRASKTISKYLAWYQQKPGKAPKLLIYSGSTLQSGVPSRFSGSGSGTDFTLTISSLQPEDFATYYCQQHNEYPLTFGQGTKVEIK	1.3
HuIgG1 mutant LysH64Ala (antibody, V domains shown, HuIgG1 mutant, human IgG1; Kabat numbering) VH: EVQLVESGGGLVQPGGSLRLSCAASGYSFTGHWMNWVRQAPGKGLEWVGMIHPSDSETRYNQKFADRFTISVDKSKNTLYLQMNSLRAEDTAVYYCARGIYFYGTTYFDYWGQGTLVTVSS VL: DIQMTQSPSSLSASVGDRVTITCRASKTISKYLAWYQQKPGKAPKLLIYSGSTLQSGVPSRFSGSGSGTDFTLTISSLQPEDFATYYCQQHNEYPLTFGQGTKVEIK	1.2
HuIgG1 mutant SerH55Ala (antibody, V domains shown, HuIgG1 mutant, human IgG1; Kabat numbering) VH: EVQLVESGGGLVQPGGSLRLSCAASGYSFTGHWMNWVRQAPGKGLEWVGMIHPSDAETRYNQKFKDRFTISVDKSKNTLYLQMNSLRAEDTAVYYCARGIYFYGTTYFDYWGQGTLVTVSS VL: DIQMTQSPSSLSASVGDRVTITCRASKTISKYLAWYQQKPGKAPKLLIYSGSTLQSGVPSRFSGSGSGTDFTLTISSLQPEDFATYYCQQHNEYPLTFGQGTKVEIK	1.3
HuIgG1 mutant ThrH30Ala (antibody, V domains shown, HuIgG1 mutant, human IgG1; Kabat numbering) VH: EVQLVESGGGLVQPGGSLRLSCAASGYSFAGHWMNWVRQAPGKGLEWVGMIHPSDSETRYNQKFKDRFTISVDKSKNTLYLQMNSLRAEDTAVYYCARGIYFYGTTYFDYWGQGTLVTVSS VL: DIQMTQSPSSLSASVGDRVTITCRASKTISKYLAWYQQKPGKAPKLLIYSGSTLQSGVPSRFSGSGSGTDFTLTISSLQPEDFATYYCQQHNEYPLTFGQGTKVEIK	1.3
HuIgG1 mutant ArgH58Ala (antibody, V domains shown, HuIgG1 mutant, human IgG1; Kabat numbering) VH: EVQLVESGGGLVQPGGSLRLSCAASGYSFTGHWMNWVRQAPGKGLEWVGMIHPSDSETAYNQKFKDRFTISVDKSKNTLYLQMNSLRAEDTAVYYCARGIYFYGTTYFDYWGQGTLVTVSS VL: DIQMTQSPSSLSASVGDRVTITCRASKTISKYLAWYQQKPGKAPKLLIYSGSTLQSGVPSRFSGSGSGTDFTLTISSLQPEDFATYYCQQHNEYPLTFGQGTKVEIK	3.3
HuIgG1 mutant L1 (antibody, V domains shown, HuIgG1 mutant, human IgG1; Kabat numbering) VH: EVQLVESGGGLVQPGGSLRLSCAASGYSFTGHWMNWVRQAPGKGLEWVGMIHPSDSETRYNQKFKDRFTISVDKSKNTLYLQMNSLRAEDTAVYYCARGIYFYGTTYFDYWGQGTLVTVSS VL: DIQMTQSPSSLSASVGDRVTITCRASAAIAAYLAWYQQKPGKAPKLLIYSGSTLQSGVPSRFSGSGSGTDFTLTISSLQPEDFATYYCQQHNEYPLTFGQGTKVEIKR	1
HuIgG1 mutant LysH73Arg (antibody, V domains shown, HuIgG1 mutant, human IgG1; Kabat numbering) VH: EVQLVESGGGLVQPGGSLRLSCAASGYSFTGHWMNWVRQAPGKGLEWVGMIHPSDSETRYNQKFKDRFTISVDRSKNTLYLQMNSLRAEDTAVYYCARGIYFYGTTYFDYWGQGTLVTVSS VL: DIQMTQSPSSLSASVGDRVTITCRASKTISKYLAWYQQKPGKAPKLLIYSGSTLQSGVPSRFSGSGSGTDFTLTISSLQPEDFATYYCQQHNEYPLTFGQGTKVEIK	5.5
HuIgG1 mutant GluL93Ala (antibody, V domains shown, HuIgG1 mutant, human IgG1; Kabat numbering) VH: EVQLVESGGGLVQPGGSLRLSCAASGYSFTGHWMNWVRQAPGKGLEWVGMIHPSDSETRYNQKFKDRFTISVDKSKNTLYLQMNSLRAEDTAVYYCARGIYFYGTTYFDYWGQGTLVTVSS VL: DIQMTQSPSSLSASVGDRVTITCRASKTISKYLAWYQQKPGKAPKLLIYSGSTLQSGVPSRFSGSGSGTDFTLTISSLQPEDFATYYCQQHNAYPLTFGQGTKVEIKR	2.9
HuIgG1 mutant GlnH61Ala (antibody, V domains shown, HuIgG1 mutant, human IgG1; Kabat numbering) VH: EVQLVESGGGLVQPGGSLRLSCAASGYSFTGHWMNWVRQAPGKGLEWVGMIHPSDSETRYNAKFKDRFTISVDKSKNTLYLQMNSLRAEDTAVYYCARGIYFYGTTYFDYWGQGTLVTVSS VL: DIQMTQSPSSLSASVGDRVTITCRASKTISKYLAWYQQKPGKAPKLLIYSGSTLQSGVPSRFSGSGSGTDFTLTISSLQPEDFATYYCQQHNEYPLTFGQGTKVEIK	5.3

# ---- query binder ----
Input: Param item = HuIgG1 mutant GlyH31Ala (antibody, V domains shown, HuIgG1 mutant, human IgG1; Kabat numbering) VH: EVQLVESGGGLVQPGGSLRLSCAASGYSFTAHWMNWVRQAPGKGLEWVGMIHPSDSETRYNQKFKDRFTISVDKSKNTLYLQMNSLRAEDTAVYYCARGIYFYGTTYFDYWGQGTLVTVSS VL: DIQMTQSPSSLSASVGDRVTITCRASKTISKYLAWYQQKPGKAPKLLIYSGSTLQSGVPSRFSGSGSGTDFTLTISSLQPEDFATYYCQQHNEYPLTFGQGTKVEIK ; retrieve measured Var.EC50/HuIgG1 EC50.
Output: 2.4
